All values here come from patent US20070184519A1.

# Measured On: DRB1*0404 (human, UniProt P01903 26-216, limits assumed)
# Assay Name: competition vs 125I probe peptide, purified MHC II
Outcome Measure: IC50
Provide a numeric answer, followed by its unit.

Answered examples (3):
| Binder | IC50 |
| --- | --- |
| DTFRKNFRVYSNFLR | 922 nM |
| DTGRKLFRVYSNFLR | 175 nM |
| DTFRKLFRVYSNDLR | 812 nM |

# ---- query binder ----
Exercise: Specify measured IC50 for DTFRKQFRVYSNFLR .
Key: 270 nM
